# assay_text: Drug concentrations in compartments of the murine FRT after IP dosing
# Type: in vivo, mouse
# experimental_parameters: mouse, plasma; female mice, 10 mg/kg IP, 3 hr; read-out: Plasma concentration
measured_parameter: concentration at 3 hr (nM)
Reply with just the number (in nM).

Enquiry: What does the record list as concentration at 3 hr for `O=C(c1ccc(OCc2ccc(OC(F)(F)F)cc2)cc1)N1CCN(c2ccc(C(F)(F)F)cn2)CC1` ?
Return: 980

----------
For each entry below, report its half-life value.
# assay_text: In vivo IV pharmacokinetics, rat cassette
# experimental_parameters: Sprague-Dawley, plasma, 0.2 mg/kg, male SD rats, 0.2 mpk IV
Reply with just the number (in h).

Enquiry: What does the record list as half-life for `Cc1cc(Cl)cc2sc(O[C@@H]3CCN(C(=O)CCCS(=O)(=O)c4cccc(Br)c4)C[C@@H]3F)nc12` ?
Return: 1.65

Enquiry: What does the record list as half-life for `Cc1cc(Cl)cc2sc(O[C@@H]3CCN(C(=O)CCCS(=O)(=O)c4cccc(Br)c4)C[C@H]3F)nc12` ?
Return: 1.8

Enquiry: What does the record list as half-life for `O=C(c1ccc(OCc2ccc(OC(F)(F)F)cc2)cc1)N1CCN(c2ccc(C(F)(F)F)cn2)CC1` ?
Return: 2.19

Enquiry: What does the record list as half-life for `Cc1cc(Cl)cc2sc(O[C@H]3CCN(C(=O)CCCS(=O)(=O)c4cccc(Br)c4)C[C@@H]3F)nc12` ?
Return: 2.91

Enquiry: What does the record list as half-life for `Cc1cc(Cl)cc2sc(O[C@H]3CCN(C(=O)CCCS(=O)(=O)c4cccc(Br)c4)C[C@H]3F)nc12` ?
Return: 1.96
